# assayed.target: T1, Monomeric human CD48-mmH (human)
# T1 construct: also called soluble CD48 expressed with a myc-myc-hexa-histidine C-terminal tag [mmH]
# T1 chain: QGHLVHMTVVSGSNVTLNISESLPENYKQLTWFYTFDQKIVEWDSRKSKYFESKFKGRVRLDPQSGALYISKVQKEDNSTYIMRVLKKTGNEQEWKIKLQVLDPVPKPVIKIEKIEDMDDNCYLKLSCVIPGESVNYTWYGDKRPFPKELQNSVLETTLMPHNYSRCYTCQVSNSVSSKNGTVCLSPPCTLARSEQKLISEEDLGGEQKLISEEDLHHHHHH
# measurement.notes: SPR (Biacore T100), 25 C, antibody captured by anti-Fc, monomeric CD48-mmH in solution
# Protocol: Measurements were conducted on a T100-2 BIACORE™ instrument (Biacore Life Sciences division of GE Healthcare, Piscataway, N.J.). […] The soluble CD48 was applied to the flow cell in separate injections at different concentrations, and kinetic association (kₐ) and dissociation (kd) rate constants were determined by fits to the kinetic binding data using Biacore software. […]
Please respond with reported T½ for every item in the list.
// units = min; emit number, no label

Name the recorded T½ of the binder listed here: H2M1811N (antibody, mouse IgG2, V domains shown, Human variable domains, mouse IgG2 Fc (prefix H2M)) VH: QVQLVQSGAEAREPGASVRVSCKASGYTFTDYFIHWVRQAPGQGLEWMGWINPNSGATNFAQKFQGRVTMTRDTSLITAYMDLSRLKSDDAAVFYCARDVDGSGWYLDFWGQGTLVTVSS VL: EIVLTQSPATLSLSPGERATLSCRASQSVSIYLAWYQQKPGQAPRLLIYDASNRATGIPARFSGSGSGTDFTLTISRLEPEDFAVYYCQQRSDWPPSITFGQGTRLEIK 14

Name the recorded T½ of the binder listed here: H4H1707N (antibody, human IgG4, V domains shown, Human IgG4 Fc (prefix H4H)) VH: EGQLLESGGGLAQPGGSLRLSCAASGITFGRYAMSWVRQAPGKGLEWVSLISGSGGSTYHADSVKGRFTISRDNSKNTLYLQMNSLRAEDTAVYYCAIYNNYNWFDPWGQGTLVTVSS VL: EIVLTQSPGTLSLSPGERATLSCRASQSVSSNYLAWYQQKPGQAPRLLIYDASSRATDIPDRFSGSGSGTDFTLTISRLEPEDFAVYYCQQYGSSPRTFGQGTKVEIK 19
